src = ChEMBL document CHEMBL1139215

species: Homo sapiens; assay: Selectivity for ROCK1 over GSK3-beta
Reported Selectivity ratio is given for each of the following compounds.

| cpd-smiles | readout | observed |
| --- | --- | --- |
| CCn1c(-c2nonc2N)nc2cnc(Oc3ccccc3)cc21 | Selectivity ratio | > 500 |

Please look at this compound and report its Selectivity ratio: `CCn1c(-c2nonc2N)nc2cnc(Oc3cccc(NC(C)=O)c3)cc21`
> 1000

Please look at this compound and report its Selectivity ratio: `CCn1c(-c2nonc2N)nc2cnc(Oc3ccc(NC(C)=O)cc3)cc21`
> 160

Please look at this compound and report its Selectivity ratio: `CCn1c(-c2nonc2N)nc2cnc(Oc3cccc(C(C)=O)c3)cc21`
> 1000
